Biological target: cloned human κ opioid receptor (Homo sapiens)
Sequence (P41145 whole entry): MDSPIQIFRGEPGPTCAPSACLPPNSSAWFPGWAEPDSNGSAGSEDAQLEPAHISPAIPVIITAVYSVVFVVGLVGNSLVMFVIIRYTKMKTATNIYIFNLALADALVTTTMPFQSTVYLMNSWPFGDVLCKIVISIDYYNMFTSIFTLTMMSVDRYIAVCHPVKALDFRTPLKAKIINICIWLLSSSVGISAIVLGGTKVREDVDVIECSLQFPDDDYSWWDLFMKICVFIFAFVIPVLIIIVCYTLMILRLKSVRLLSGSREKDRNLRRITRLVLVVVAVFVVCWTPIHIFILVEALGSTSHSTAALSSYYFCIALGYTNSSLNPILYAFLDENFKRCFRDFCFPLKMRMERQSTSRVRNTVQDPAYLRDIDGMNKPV
outcome measure: pKi
The meaning of pKi here: minus log10 of the concentration in molar units.

Quick one: pKi of O=C1C(c2ccc(Cl)c(Cl)c2)CC=CCN1[C@H](CN1CCCC1)c1ccccc1 (stereo partly shown) ?
9.00

Cited source for all entries: patent US6852713B2
